The values you see were collected from the RNAGym collection of RNA variant scans (doi:10.1073/pnas.2313332121).

B1: TPR t1 (parent)
chain: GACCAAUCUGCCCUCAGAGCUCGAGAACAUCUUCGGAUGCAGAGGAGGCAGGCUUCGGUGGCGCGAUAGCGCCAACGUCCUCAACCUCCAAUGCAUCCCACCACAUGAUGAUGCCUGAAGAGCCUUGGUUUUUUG

Variants of: B1
Assay: polymerase ribozyme fitness, log enrichment relative to wild type (log ratio); higher = more active; in vitro selection for triplet polymerase activity
READOUT NAME: polymerase ribozyme fitness (log ratio)
# answer = number (no unit)

Record summary for C28U G45C C76A C89G G120C : reported polymerase ribozyme fitness (log ratio) = -5.73

Record summary for U7C C8A G48U G63U G120U C123U : reported polymerase ribozyme fitness (log ratio) = -0.338

Record summary for U55C C62U C89A U109A : reported polymerase ribozyme fitness (log ratio) = -6.44

Record summary for C70U C115G : reported polymerase ribozyme fitness (log ratio) = -2.23

Record summary for A43G A100U : reported polymerase ribozyme fitness (log ratio) = -2.72

Record summary for C20U C70U C102U : reported polymerase ribozyme fitness (log ratio) = -3.45

Record summary for C8U C73A C123A : reported polymerase ribozyme fitness (log ratio) = 2.02

Record summary for C12U G45U G77C : reported polymerase ribozyme fitness (log ratio) = -0.677

Record summary for A6C G61U U92C U129C : reported polymerase ribozyme fitness (log ratio) = -2.43

Record summary for U21A G36A : reported polymerase ribozyme fitness (log ratio) = -0.614

Record summary for G17U U21A C62G A75C C124U : reported polymerase ribozyme fitness (log ratio) = -4.5

Record summary for A74U C88G U112G U132G G135A : reported polymerase ribozyme fitness (log ratio) = -0.922

Record summary for C70U C97A G113C A119U G127C : reported polymerase ribozyme fitness (log ratio) = -5.36

Record summary for G10C C13G : reported polymerase ribozyme fitness (log ratio) = -0.638

Record summary for C70G U96C : reported polymerase ribozyme fitness (log ratio) = -2.6

Record summary for A50C C72A : reported polymerase ribozyme fitness (log ratio) = 0.00514
